Target: T1, CD32a-R131 (FcgRIIa-R131) (Homo sapiens, UniProt P12318, H167R)
T1 sequence (P12318 34-217 H167R limits assumed): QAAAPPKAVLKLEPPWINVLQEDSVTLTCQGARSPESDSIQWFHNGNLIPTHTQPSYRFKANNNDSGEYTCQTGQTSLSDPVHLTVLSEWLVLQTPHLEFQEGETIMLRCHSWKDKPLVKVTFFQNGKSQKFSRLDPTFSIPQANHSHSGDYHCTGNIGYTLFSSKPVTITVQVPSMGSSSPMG
Assay: SPR, antibody binding to anti-his Fab captured FcgR-his (% Rmax)
Details: 1 μM antibody
EXPERIMENTAL_ENDPOINT: % Rmax hCD32a-R131 (%)
Just the number in %, nothing appended.

Query: Return the recorded % Rmax hCD32a-R131 value; entry: mAb4-IgG2.5 (protein, left off: another chain or arm of the molecule) constant: ASTKGPSVFPLAPSSRSTSESTAALGCLVKDYFPEPVTVSWNSGALTSGVHTFPAVLQSSGLYSLSSVVTVPSSNFGTQTYTCNVDHKPSNTKVDKTVERKCCVECPPCPAPPVAGPSVFLFPPKPKDTLMISRTPEVTCVVVDVSHEDPEVQFNWYVDGVEVHNAKTKPREEQFNSTFRVVSVLTVVHQDWLNGKEYKCKVSNKGLPAPIEKTISKTKGQPREPQVYTLPPSREEMTKNQVSLTCLVKGFYPSDIAVEWESNGQPENNYKTTPPMLDSDGSFFLYSKLTVDKSRWQQGNVFSCSVMHEALHNHYTQKSLSLSPGK
Response: 8

Query: Return the recorded % Rmax hCD32a-R131 value; entry: mAb12-IgG2.3 (protein, left off: another chain or arm of the molecule) constant: ASTKGPSVFPLAPCSRSTSESTAALGCLVKDYFPEPVTVSWNSGALTSGVHTFPAVLQSSGLYSLSSVVTVPSSNFGTQTYTCNVDHKPSNTKVDKTVERKSCVECPPCPAPPVAGPSVFLFPPKPKDTLMISRTPEVTCVVVDVSHEDPEVQFNWYVDGVEVHNAKTKPREEQFNSTFRVVSVLTVVHQDWLNGKEYKCKVSNKGLPAPIEKTISKTKGQPREPQVYTLPPSREEMTKNQVSLTCLVKGFYPSDIAVEWESNGQPENNYKTTPPMLDSDGSFFLYSKLTVDKSRWQQGNVFSCSVMHEALHNHYTQKSLSLSPGK
Response: 7
